B1: Limonene-1,2-epoxide hydrolase, Q9ZAG3 (parent)
chain: MTSKIEQPRWASKDSAAGAASTPDEKIVLEFMDALTSNDAAKLIEYFAEDTMYQNMPLPPAYGRDAVEQTLAGLFTVMSIDAVETFHIGSSNGLVYTERVDVLRALPTGKSYNLSILGVFQLTEGKITGWRDYFDLREFEEAVDLPLRG

Variants of: B1
Experimental Conditions: Rhodococcus erythropolis; pH 7.1; Thermal; Fluorescence; Potassium phosphate 50mM; transition: 2; reversible: no; structure 1NWW; whole UniProt chain shown
Quantity: change of melting temperature, mutant - wild type (higher = more stable) (°C)

1. D33K = -1.5
2. S111K = -2.3
3. E45K = 2
4. A41R = 0
5. A17C L94C = 7.2
6. Q121V = -10
7. A142R = -2.8
8. L106R = -2.3
9. A105C V143C = -2.3
10. A19K = 2.5
11. E45R = -1
12. I5C E84C = 15.2
13. G18N = 0.3
14. L94F = 0
15. Q69R = 0.3
16. V102C = 13.2
17. T85V = 6.8
18. N92R = 1.8
19. E124D = 1.3
20. M32C V83C = -4.8
21. S15P = 0.2
22. Y112C A142C = 7.2
